Target: DNA topoisomerase 2-alpha (Homo sapiens, UniProt P11388)
Sequence (P11388 whole entry, the tested form may be a part): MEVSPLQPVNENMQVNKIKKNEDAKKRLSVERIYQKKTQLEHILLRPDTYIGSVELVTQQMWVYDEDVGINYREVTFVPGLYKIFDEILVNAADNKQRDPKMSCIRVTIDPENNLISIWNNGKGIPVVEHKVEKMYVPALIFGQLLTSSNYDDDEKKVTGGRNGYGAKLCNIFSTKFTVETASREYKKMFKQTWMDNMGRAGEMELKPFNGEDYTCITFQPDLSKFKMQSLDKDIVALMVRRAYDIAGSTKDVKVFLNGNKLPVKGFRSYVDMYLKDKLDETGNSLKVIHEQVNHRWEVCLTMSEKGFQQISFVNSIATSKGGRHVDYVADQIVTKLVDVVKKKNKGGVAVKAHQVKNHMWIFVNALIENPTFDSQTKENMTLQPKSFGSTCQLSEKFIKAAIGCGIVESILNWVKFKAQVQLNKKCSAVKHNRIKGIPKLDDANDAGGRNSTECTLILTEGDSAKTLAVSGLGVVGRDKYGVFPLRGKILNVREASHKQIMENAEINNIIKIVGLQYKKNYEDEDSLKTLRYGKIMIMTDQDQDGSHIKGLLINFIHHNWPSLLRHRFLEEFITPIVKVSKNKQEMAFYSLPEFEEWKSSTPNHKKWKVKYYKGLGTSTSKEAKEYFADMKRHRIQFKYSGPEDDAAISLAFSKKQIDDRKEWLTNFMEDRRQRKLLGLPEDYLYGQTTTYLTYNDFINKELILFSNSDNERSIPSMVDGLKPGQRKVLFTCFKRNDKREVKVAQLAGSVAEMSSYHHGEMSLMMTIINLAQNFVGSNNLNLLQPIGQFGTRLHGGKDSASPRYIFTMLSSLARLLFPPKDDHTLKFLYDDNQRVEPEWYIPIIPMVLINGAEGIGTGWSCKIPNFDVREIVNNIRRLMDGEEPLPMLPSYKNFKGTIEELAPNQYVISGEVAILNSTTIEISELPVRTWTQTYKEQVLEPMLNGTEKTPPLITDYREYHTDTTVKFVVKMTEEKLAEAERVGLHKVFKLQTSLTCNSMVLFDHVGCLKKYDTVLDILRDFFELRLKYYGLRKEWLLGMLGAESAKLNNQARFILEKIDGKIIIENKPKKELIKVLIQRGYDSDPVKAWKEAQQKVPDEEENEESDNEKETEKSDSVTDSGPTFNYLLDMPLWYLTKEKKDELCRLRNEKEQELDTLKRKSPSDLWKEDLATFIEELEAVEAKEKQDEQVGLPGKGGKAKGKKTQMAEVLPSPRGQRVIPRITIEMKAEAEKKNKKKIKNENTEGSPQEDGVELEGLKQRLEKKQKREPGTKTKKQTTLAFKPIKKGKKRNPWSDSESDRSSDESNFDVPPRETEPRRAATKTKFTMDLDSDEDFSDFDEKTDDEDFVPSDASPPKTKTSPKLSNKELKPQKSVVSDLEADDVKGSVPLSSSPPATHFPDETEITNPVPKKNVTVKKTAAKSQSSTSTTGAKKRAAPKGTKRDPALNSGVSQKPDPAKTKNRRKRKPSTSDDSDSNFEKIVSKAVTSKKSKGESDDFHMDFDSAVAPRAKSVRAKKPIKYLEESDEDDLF
Assay: Inhibition of human DNA topoisomerase 2 catalytic domain-mediated knotted bacteriophage P4Virl dell0 DNA unknotting by agarose gel electrophoresis
Reported IC50 values for the following molecules.

| Substance Smiles | IC50 [µM] |
| --- | --- |
| O=c1c(O)c(-c2ccc(O)c(O)c2)oc2cc(O)ccc12 | 28.6 |
| O=C(CCc1ccc(O)cc1)c1c(O)cc(O)cc1O | 168 |
| O=c1c(-c2ccc(O)cc2)coc2cc(O)cc(O)c12 | 111 |
| O=c1c(O)c(-c2ccc(O)c(O)c2)oc2cc(O)cc(O)c12 | 22.8 |
| O=c1c(-c2ccc(O)cc2)coc2cc(O)c(O)cc12 | 162 |
| O=c1c(O)c(-c2ccc(O)cc2O)oc2cc(O)cc(O)c12 | 135 |
